Test system: MALME-3M melanoma
Test: NCI tumour cell line growth inhibition, 48 h
measure: GI50

Solved entries (count: 3):
compound-smiles: C/C(=N\NC(=O)c1ccncc1)c1ccccc1O
GI50: 5.39 µM
--
compound-smiles: CN1CCN(Cc2ccc(NC(=O)c3cncc(C#Cc4cnc5cccnn45)c3)cc2C(F)(F)F)CC1
GI50: 0.595 µM
--
compound-smiles: O=C(NCc1cccnc1)c1ccc([N+](=O)[O-])o1
GI50: 1.56 µM

The record that follows has no GI50 shown yet.
Noted for O=C1COc2c(CCNCCN(C(=O)CCNCCc3ccc(Cl)c(Cl)c3)C3CCCCC3)ccc(O)c2N1 : its GI50 reads 21.9 µM

The values you see were collected from PubChem BioAssay (NCI).
